From: ChEMBL document CHEMBL4177721

# Test system: B16-F10
# protocol-details: Antitumor activity against mouse B16F10 cells incubated for 72 hrs by MTT assay
# Assay type: functional, cell-based
# conditions-used: B16-F10, 72 h
parameter: log10(IC50) (log10 of the value in µM)

compound-string: COc1ccc(-c2cn(Cc3ccccc3)nn2)cc1
log10(IC50): 1.95

compound-string: c1ccc(Cn2cc(-c3ccccc3)nn2)cc1
log10(IC50): 1.98

compound-string: Cc1ccc(-c2cn(Cc3ccccc3)nn2)cc1
log10(IC50): 1.82

compound-string: C1=C(c2cn(Cc3ccccc3)nn2)CCCC1
log10(IC50): 1.66

compound-string: FC(F)(F)c1ccc(-c2cn(Cc3ccccc3)nn2)cc1
log10(IC50): 1.55

compound-string: CCCCc1cn(Cc2ccccc2)nn1
log10(IC50): 2.62

###

# Tested on: P388
# protocol-details: Antitumor activity against mouse P388 cells incubated for 72 hrs by MTT assay
# Format: functional, cell-based
# conditions-used: P388, 72 h

compound-string: c1ccc(Cn2cc(-c3ccccc3)nn2)cc1
endpoint-unit: µM
IC50: 99.1
//
compound-string: COc1ccc(-c2cn(Cc3ccccc3)nn2)cc1
endpoint-unit: µM
IC50: 83.8
//
compound-string: C1=C(c2cn(Cc3ccccc3)nn2)CCCC1
endpoint-unit: µM
IC50: 49.6
//
compound-string: CCCCc1cn(Cc2ccccc2)nn1
endpoint-unit: µM
IC50: 217
//
compound-string: Cc1ccc(-c2cn(Cc3ccccc3)nn2)cc1
endpoint-unit: µM
IC50: 94.1
//
compound-string: FC(F)(F)c1ccc(-c2cn(Cc3ccccc3)nn2)cc1
endpoint-unit: µM
IC50: 17.5
